Data provenance: the supplement of paper PMC10567573

Hi there, I'd appreciate the recorded protein stability index for every entry that follows.
B1: FUT8 (parent)
chain: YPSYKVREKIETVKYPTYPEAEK

- Variants of: B1
- run description: protein stability index of a GFP-peptide fusion (GPS, HEK-293T) (PSI 1-6); higher = more stable;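 note: lentivirally expressed fusions sorted by FACS into six bins by GFP to DsRed ratio, PSI derived from sequencing read proportions per bin multiplied by bin number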
- measurement context: c terminus: native

Q: What measured protein stability index goes with YPSYKVREKIETVIYPTYPEAEK [K14I] ?
A: 3.88

Q: Next: YPSYEVREKIETVKYPTYPEAEK [K5E]
A: 5.15

Q: Next: YPSYKVREKYETVKYPTYPEAEK [I10Y]
A: 4.29

Q: Next: YPSYKVREKIETVKYPTYPTAEK [E20T]
A: 3.87

Q: Next: YPSYKVREKIETVKYPTYPEFEK [A21F]
A: 4.18

Q: Next: YPSYKVREKIETVKYPTYPVAEK [E20V]
A: 3.48

Q: Next: YPSYKVREKIETVKYPTYPEARK [E22R]
A: 4.2

Q: Next: MPSYKVREKIETVKYPTYPEAEK [Y1M]
A: 4.7

Q: Next: YPSYKVREKIETVKYPTYPEIEK [A21I]
A: 3.85

Q: Next: YPSYKVCEKIETVKYPTYPEAEK [R7C]
A: 3.76

Q: Next: YPSYKVRRKIETVKYPTYPEAEK [E8R]
A: 3.74

Q: Next: GPSYKVREKIETVKYPTYPEAEK [Y1G]
A: 5.08

Q: Next: YPSYKVRPKIETVKYPTYPEAEK [E8P]
A: 3.72

Q: Next: YPSYKVREKIETVKYPTSPEAEK [Y18S]
A: 4.68

Q: Next: YPSYKVREKIETVKYVTYPEAEK [P16V]
A: 4.6

Q: Next: YPSYKVREKIETVKRPTYPEAEK [Y15R]
A: 4.22

Q: Next: YPSYKVREKIETVKYPTTPEAEK [Y18T]
A: 4.7

Q: Next: YPSYKVREKIETVKYPTYPKAEK [E20K]
A: 4.69

Q: Next: YPSYKVRGKIETVKYPTYPEAEK [E8G]
A: 3.92

Q: Next: YPSYKVREKIETVKYYTYPEAEK [P16Y]
A: 3.62

Q: Next: YPSYKVREKIETVKYPTYEEAEK [P19E]
A: 4.67

Q: Next: YPSYKVREKIETVKYPTYMEAEK [P19M]
A: 3.04

Q: Next: FPSYKVREKIETVKYPTYPEAEK [Y1F]
A: 4.75

Q: Next: YPSYKVREKIETVKYPTYPIAEK [E20I]
A: 2.88

Q: Next: YPSYKVREKIETVKYPTHPEAEK [Y18H]
A: 4.31

Q: Next: YPSYKVGEKIETVKYPTYPEAEK [R7G]
A: 4.7

Q: Next: YPSYKVREKIETVKPPTYPEAEK [Y15P]
A: 4.45

Q: Next: YPSYKQREKIETVKYPTYPEAEK [V6Q]
A: 4.13

Q: Next: YGSYKVREKIETVKYPTYPEAEK [P2G]
A: 4.05

Q: Next: YPSYKVLEKIETVKYPTYPEAEK [R7L]
A: 4.48

Q: Next: YPSNKVREKIETVKYPTYPEAEK [Y4N]
A: 4.47

Q: Next: YPSYKVREKIETVKYPTYVEAEK [P19V]
A: 2.98

Q: Next: YPSYKVREKIETVKYRTYPEAEK [P16R]
A: 3.95

Q: Next: YPSYKVREKAETVKYPTYPEAEK [I10A]
A: 4.19

Q: Next: YPSYKVRECIETVKYPTYPEAEK [K9C]
A: 4.43

Q: Next: YPSYDVREKIETVKYPTYPEAEK [K5D]
A: 4.72

Q: Next: YPSYKVREKWETVKYPTYPEAEK [I10W]
A: 2.87

Q: Next: YPSYKVREKFETVKYPTYPEAEK [I10F]
A: 4.36

Q: Next: WPSYKVREKIETVKYPTYPEAEK [Y1W]
A: 4.46

Q: Next: YPSYKVRFKIETVKYPTYPEAEK [E8F]
A: 2.02

Q: Next: YPSYVVREKIETVKYPTYPEAEK [K5V]
A: 4.16

Q: Next: YPSYKVREKIETVKYPTYPEAEC [K23C]
A: 3.19

Q: Next: IPSYKVREKIETVKYPTYPEAEK [Y1I]
A: 5.15

Q: Next: YPSYKVREKIETVKKPTYPEAEK [Y15K]
A: 5.03

Q: Next: YPSYKVQEKIETVKYPTYPEAEK [R7Q]
A: 4.45

Q: Next: YPLYKVREKIETVKYPTYPEAEK [S3L]
A: 4.7
